- target system: T1, human IL-6 (human, UniProt P05231 30-212)
- T1 construct: also called interleukin-6
- T1 sequence (P05231 30-212 limits assumed): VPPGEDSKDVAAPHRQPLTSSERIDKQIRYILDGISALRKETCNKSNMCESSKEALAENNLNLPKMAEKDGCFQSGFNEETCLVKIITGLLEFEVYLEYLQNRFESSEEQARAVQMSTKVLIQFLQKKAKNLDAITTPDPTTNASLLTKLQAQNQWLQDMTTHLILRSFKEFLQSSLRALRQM
- assay details: SPR (Biacore T200), antibody from cell supernatant captured on Protein A, IL-6 flowed over, 37 C
Quick rule for you: Kd under 0.2 nM gets satisfied, anything else gets not satisfied.

Solved cases below.
| binder | assigned category |
| --- | --- |
| anti-IL-6 antibody, heavy chain T65L, G66D / light chain WT (antibody, human IgG1, V domains shown, Derived as m2; Engineered human IgG1) VH: EVQLVESGGGLVQPGGSLRLSCAASGFTFSPFAMSWVRQAPGKGLEWVAKISPGGSWTYYSDTVLDRFTFSLDTSKSTAYLQMNSLRAEDTAVYYCARQLWGYYALDIWGQGTLVTVSS VL: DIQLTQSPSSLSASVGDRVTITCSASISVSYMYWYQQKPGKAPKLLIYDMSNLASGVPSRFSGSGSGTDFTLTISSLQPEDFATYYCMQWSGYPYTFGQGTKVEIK | not satisfied |
| anti-IL-6 antibody, heavy chain I51Y, G66D / light chain WT (antibody, human IgG1, V domains shown, Derived as m2; Engineered human IgG1) VH: EVQLVESGGGLVQPGGSLRLSCAASGFTFSPFAMSWVRQAPGKGLEWVAKYSPGGSWTYYSDTVTDRFTFSLDTSKSTAYLQMNSLRAEDTAVYYCARQLWGYYALDIWGQGTLVTVSS VL: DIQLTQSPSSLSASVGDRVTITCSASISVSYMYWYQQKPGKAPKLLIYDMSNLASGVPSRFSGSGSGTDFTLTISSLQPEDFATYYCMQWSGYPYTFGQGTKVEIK | not satisfied |

IN: is_below(Kd, 0.2 nM) for anti-IL-6 antibody, heavy chain T65V, G66D / light chain WT (antibody, human IgG1, V domains shown, Derived as m2; Engineered human IgG1) VH: EVQLVESGGGLVQPGGSLRLSCAASGFTFSPFAMSWVRQAPGKGLEWVAKISPGGSWTYYSDTVVDRFTFSLDTSKSTAYLQMNSLRAEDTAVYYCARQLWGYYALDIWGQGTLVTVSS VL: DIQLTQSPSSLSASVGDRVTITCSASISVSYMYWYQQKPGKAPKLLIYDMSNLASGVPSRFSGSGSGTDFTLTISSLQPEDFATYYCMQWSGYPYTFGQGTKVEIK ?
OUT: satisfied

IN: Kd strictly < 0.2 nM for this binder? anti-IL-6 antibody, heavy chain I51T, G66D / light chain WT (antibody, human IgG1, V domains shown, Derived as m2; Engineered human IgG1) VH: EVQLVESGGGLVQPGGSLRLSCAASGFTFSPFAMSWVRQAPGKGLEWVAKTSPGGSWTYYSDTVTDRFTFSLDTSKSTAYLQMNSLRAEDTAVYYCARQLWGYYALDIWGQGTLVTVSS VL: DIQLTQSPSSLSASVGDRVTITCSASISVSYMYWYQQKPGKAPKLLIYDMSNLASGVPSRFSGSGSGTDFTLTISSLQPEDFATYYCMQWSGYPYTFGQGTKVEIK
OUT: not satisfied

IN: Dear reviewer, please state whether anti-IL-6 antibody, heavy chain T63P, G66D / light chain WT (antibody, human IgG1, V domains shown, Derived as m2; Engineered human IgG1) VH: EVQLVESGGGLVQPGGSLRLSCAASGFTFSPFAMSWVRQAPGKGLEWVAKISPGGSWTYYSDPVTDRFTFSLDTSKSTAYLQMNSLRAEDTAVYYCARQLWGYYALDIWGQGTLVTVSS VL: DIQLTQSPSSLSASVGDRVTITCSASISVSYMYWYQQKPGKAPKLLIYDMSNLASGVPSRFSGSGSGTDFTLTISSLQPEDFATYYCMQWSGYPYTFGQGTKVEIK has Kd strictly beneath 0.2 nM.
OUT: not satisfied
